System: BC-3 PEL cell line
Assay: CellTiter-Glo cell viability assay, BC-3
Conditions: read-out: BC-3 LC50 (μM)
# reported log10 CC50; entries follow
Please be aware that the numbers have been log10-transformed from CC50 in µM.

Examples with answers:
[
  {
    "Compound": "CCCCC(CC)CNC(=N)NC(=N)NCCCCCCNC(=N)NC(=N)NCC(CC)CCCC (centres unmarked)",
    "log10 CC50": 0.59
  },
  {
    "Compound": "CC(=O)N1CCc2cc(C(=O)C(C)Oc3ccc(C#N)cc3Cl)ccc21 (centres unmarked)",
    "log10 CC50": 1.56
  },
  {
    "Compound": "O=C(C1CCCN1c1ncccn1)N1CCc2c(Cl)cccc2C1 (centres unmarked)",
    "log10 CC50": 1.60
  }
]

Q) Identify measured log10 CC50 associated with CCOc1ccc2nc3cc(N)ccc3c(N)c2c1
A) 1.09

Q) Please indicate log10 CC50 recorded for c1ccc2c(c1)Nc1ccccc1S2
A) 1.80

###

Assay: in vitro
Settings: human
# label = class 1 if CC50 < 8 µM else class 0

[
  {
    "Compound": "Cc1cc(CNC(=O)NC2CCCC2)cc(C)c1O",
    "Category": "class 0"
  },
  {
    "Compound": "CN(Cc1ccc2cccnc2c1)S(=O)(=O)c1cccs1",
    "Category": "class 0"
  },
  {
    "Compound": "CCCCC(CC)CNC(=N)NC(=N)NCCCCCCNC(=N)NC(=N)NCC(CC)CCCC (centres unmarked)",
    "Category": "class 1"
  }
]

Q) Strictly below 8 µM in CC50? c1ccc2c(c1)Nc1ccccc1S2
A) class 0

Q) Take the compound O=C(C1CCCN1c1ncccn1)N1CCc2c(Cl)cccc2C1 (centres unmarked) and say whether its CC50 is less than 8 µM.
A) class 0

###

Below: a set of entries, each annotated with reported CC50.
Test system: BC-3 PEL cell line
Assay: CellTiter-Glo cell viability assay, BC-3
Details: read-out: BC-3 LC50 (μM)

Answered cases to consult:
[
  {
    "Test Smiles": "CN(Cc1ccc2cccnc2c1)S(=O)(=O)c1cccs1",
    "CC50": "> 100 µM"
  },
  {
    "Test Smiles": "Cc1cc(CNC(=O)NC2CCCC2)cc(C)c1O",
    "CC50": "> 100 µM"
  }
]

Let us move to another entry and its CC50.
Q) Return reported CC50. Input compound: Cc1cccc(-c2cccc(CNC(=O)NCCS(C)(=O)=O)c2)c1
A) > 100 µM

###

The entries below come with measured CC50 values attached.
Assay: in vitro
Conditions: human
Reply with just the number (in µM).

[
  {
    "Compound": "CCOc1ccc2nc3cc(N)ccc3c(N)c2c1 [Compound 2]",
    "Val": 7.7
  }
]

Q) In one line, give reported CC50 of the entry CC(=O)N1CCc2cc(C(=O)C(C)Oc3ccc(C#N)cc3Cl)ccc21 (stereo not drawn) [Compound 6] .
A) 69.7
